system: Vero E6 infected with SARS-CoV-2; assay: SARS-CoV-2 infection rate relative to infected DMSO; higher = more infection, active = 60 or less; conditions: 24 h
Measured Endpoint: SARS-CoV-2 infection rate

Hi, could you look up SARS-CoV-2 infection rate for each item in my list?
1. CC(C)C[C@H](NC(=O)[C@@H](Cc1c[nH]c2ccccc12)NC(=O)[C@H](Cc1ccc(O)cc1)NC(=O)[C@H](CO)NC(=O)[C@H](Cc1c[nH]c2ccccc12)NC(=O)[C@H](Cc1c[nH]cn1)NC(=O)[C@@H]1CCC(=O)N1)C(=O)N[C@@H](CCCNC(=N)N)C(=O)N1CCC[C@H]1C(=O)NCC(N)=O [triptorelin] (10 µM)
2. O=C(O)c1cc(=O)c2ccccc2[nH]1 [kynurenic-acid] (10 µM)

# output
110% (inactive)
97% (inactive)

# input Look at this molecule and give its reported SARS-CoV-2 infection rate. Cc1cc(OCc2nnc(SC3CCCC3)n2-c2cccnc2)ccc1-c1ccc(S(C)(=O)=O)cc1 (0.833333 µM)
# output 100% (inactive)
